Origin of the recorded values: ChEMBL document CHEMBL3124900

- Assay Explanation: Half life in rat liver microsomes at 3 uM by LC/MS/MS analysis
- Format: ADME
Readout: half-life at 3 µM

May I ask what half-life at 3 µM has been recorded for `C=C[C@@H]1C[C@]1(NC(=O)[C@@H]1C[C@@H](Oc2nccc3cc(OC)ccc23)CN1C(=O)[C@@H](NC(=O)OC(C)(C)C)C(C)(C)C)C(=O)NS(=O)(=O)C1CC1` ?
> 60 min

====

- System: Liver
- Assay Explanation: Drug uptake in intraduodenally dosed Sprague-Dawley rat liver measured per gm of tissue over 4 hrs by LC/MS/MS analysis
- Type: ADME, organism-based
- Applied Conditions: in vivo, other
Readout: log10(Drug uptake) (log10 of the value in ng)
Lab note - Drug uptake converted to log10 from values in ng.

Requested read-out log10(Drug uptake), target or system Liver, entry `C=C[C@@H]1C[C@]1(NC(=O)[C@@H]1C[C@@H](Oc2ccnc3cc(OC)ccc23)CN1C(=O)[C@@H](NC(=O)OC(C)(C)C)C(C)(C)C)C(=O)NS(=O)(=O)C1CC1`
2.79

Requested read-out log10(Drug uptake), target or system Liver, entry `C=C[C@@H]1C[C@]1(NC(=O)[C@@H]1C[C@@H](Oc2ccnc(-c3ccccc3)c2)CN1C(=O)[C@@H](NC(=O)OC(C)(C)C)C(C)(C)C)C(=O)NS(=O)(=O)C1CC1`
2.50

Requested read-out log10(Drug uptake), target or system Liver, entry `C=C[C@@H]1C[C@]1(NC(=O)[C@@H]1C[C@@H](Oc2nccc3ccccc23)CN1C(=O)[C@@H](NC(=O)OC(C)(C)C)C(C)(C)C)C(=O)NS(=O)(=O)C1CC1`
4.45

Requested read-out log10(Drug uptake), target or system Liver, entry `C=C[C@@H]1C[C@]1(NC(=O)[C@@H]1C[C@H](Oc2nccc3cc(OC)ccc23)CN1C(=O)[C@@H](NC(=O)OC(C)(C)C)C(C)(C)C)C(=O)NS(=O)(=O)C1CC1`
3.49

Requested read-out log10(Drug uptake), target or system Liver, entry `C=C[C@@H]1C[C@]1(NC(=O)[C@@H]1C[C@@H](Oc2ncc(C)c3ccccc23)CN1C(=O)[C@@H](NC(=O)OC(C)(C)C)C(C)(C)C)C(=O)NS(=O)(=O)C1CC1`
4.99

Requested read-out log10(Drug uptake), target or system Liver, entry `C=C[C@@H]1C[C@]1(NC(=O)[C@@H]1C[C@@H](Oc2nccc3cc(N4CCOCC4)ccc23)CN1C(=O)[C@@H](NC(=O)OC(C)(C)C)C(C)(C)C)C(=O)NS(=O)(=O)C1CC1`
3.01

Requested read-out log10(Drug uptake), target or system Liver, entry `C=C[C@@H]1C[C@]1(NC(=O)[C@@H]1C[C@@H](Oc2ncnc3cc(OC)ccc23)CN1C(=O)[C@@H](NC(=O)OC(C)(C)C)C(C)(C)C)C(=O)NS(=O)(=O)C1CC1`
3.37

Requested read-out log10(Drug uptake), target or system Liver, entry `C=C[C@@H]1C[C@]1(NC(=O)[C@@H]1C[C@@H](Oc2nc(-c3ccccc3)cc3cc(OC)ccc23)CN1C(=O)[C@@H](NC(=O)OC(C)(C)C)C(C)(C)C)C(=O)NS(=O)(=O)C1CC1`
4.86

Requested read-out log10(Drug uptake), target or system Liver, entry `C=C[C@@H]1C[C@]1(NC(=O)[C@@H]1C[C@@H](Oc2cc(-c3ccccc3)nc3cc(OC)ccc23)CN1C(=O)[C@@H](NC(=O)OC)C(C)(C)C)C(=O)NS(=O)(=O)C1CC1`
2.19
